Taken from the supplement of paper PMC13380429.

System: Vero E6 infected with SARS-CoV-2
assay_name: morphology score (similarity to uninfected cells); higher = more like uninfected cells
particulars: 24 h
readout_type: morphology score
# answer = number (no unit)

# annotated cases, reported morphology score shown
compound: CN1CCc2nc(C(=O)N[C@@H]3C[C@@H](C(=O)N(C)C)CC[C@@H]3NC(=O)C(=O)Nc3ccc(Cl)cn3)sc2C1 [edoxaban] (10 µM)
morphology score: 0.0662

compound: CC1CCN(CC[C@H]2CCCN2S(=O)(=O)c2cccc(O)c2)CC1 (10 µM)
morphology score: 0.0739

compound: Nc1ncn([C@H]2C[C@H](O)[C@@H](CO)O2)c(=O)n1 [decitabine] (10 µM)
morphology score: 0.0186

Now, please, on to the next compound.
Sample FC(F)(F)c1cc(NC(=S)Nc2ccc(Br)cc2-c2nnn[nH]2)cc(C(F)(F)F)c1 (10 µM) — what was its morphology score? 0.0928

====

Test system: Vero E6 infected with SARS-CoV-2
assay_name: inhibition of SARS-CoV-2 cytopathic effect; higher = more antiviral protection, active = above 15
particulars: 10000 nM; 48 h
Item-by-item account of inhibition of SARS-CoV-2 cytopathic effect

compound: CONC(=N)c1ccc(-c2ccc(-c3ccc(C(=N)NOC)cc3)o2)cc1
value: 2.7% (inactive)

compound: O=C(NC1CCNCC1)c1n[nH]cc1NC(=O)c1c(Cl)cccc1Cl
value: 2.5% (inactive)

compound: CCN1CCN(c2ccc(C(C)(C)NC(=O)c3cc4[nH]c5ccccc5c(=O)c4cc3F)cn2)CC1
value: 26.8% (active)

Query: inhibition of SARS-CoV-2 cytopathic effect; subject: N#C/C(=C\c1cn(-c2ccccc2)c2ccccc12)C(=O)O -2.52% (inactive)

Please give the measured inhibition of SARS-CoV-2 cytopathic effect for this compound: CCC(=O)O[C@H](CC(=O)O)C[N+](C)(C)C [levocarnitine-propionate] 0.31% (inactive)

// returns reported inhibition of SARS-CoV-2 cytopathic effect for input CN(C)CC[C@@]1(c2ccc(Cl)cc2)Cc2ccccc2C(=O)O1 (racemic) -3.54% (inactive)

====

System: Vero E6 infected with SARS-CoV-2
assay_name: inhibition of SARS-CoV-2 cytopathic effect; higher = more antiviral protection, active = above 15
particulars: 833.33 nM; 48 h
Entries and their measured inhibition of SARS-CoV-2 cytopathic effect follow.
Output spec: scalar in %, unitless text.

Solved entries:
compound: CCn1cc(C(=O)O)c(=O)c2cc(F)c(N3CCNC(C)C3)c(F)c21 (stereo not given)
value: 0.73

compound: Cc1cc(O)c(-c2ccc([C@@H](C)CN)cc2)c2c1[nH]c(=O)c1sccc12
value: 3.77

compound: CN1C(C(=O)Nc2ccccn2)=C(O)c2sc(Cl)cc2S1(=O)=O
value: 0.9

So what's the measured inhibition of SARS-CoV-2 cytopathic effect for this one? C[C@@H](O)[C@H]1C(=O)N2C(C(=O)[O-])=C(SC3Cn4cnc[n+]4C3)[C@H](C)[C@H]12 (stereo not given in full) 0.63

Query (compound): Oc1cc(CNC(=S)/C=C/c2cc(O)c(O)c(Br)c2)cc(O)c1O ; field requested: inhibition of SARS-CoV-2 cytopathic effect 5.44

So what does the record say about inhibition of SARS-CoV-2 cytopathic effect for CN(C)CC[C@@H](c1ccc(Cl)cc1)c1ccccn1 ? 0.17

I have this compound here, c1ccc(-c2nn3c(c2-c2ccnc4cc(OCCN5CCOCC5)ccc24)CCC3)nc1 , and I need its recorded inhibition of SARS-CoV-2 cytopathic effect. -0.96

Entry O=C(O)C1CSCN1 (stereo not given) : reported inhibition of SARS-CoV-2 cytopathic effect = ? 10.6

Which inhibition of SARS-CoV-2 cytopathic effect reading was recorded for the compound CCN(C(C)=O)c1cccc(-c2ccnc3c(C#N)cnn23)c1 ? -0.59

Quick one: inhibition of SARS-CoV-2 cytopathic effect for CC(C)(O)CNc1nc(Nc2ccnc(C(F)(F)F)c2)nc(-c2cccc(C(F)(F)F)n2)n1 ? -2.37
